- System: mouse isolated vas deferens
- experiment notes: Mouse isolated vas deferens (MVD) bioassay, electrically stimulated contractions
- Assay type: cell-based
- run parameters: Mus musculus; vas deferens of male Swiss Webster mice, electrically evoked contractions; NA = not active; read-out: MVD Assay EC50
readout kind: pEC50
A value of pEC50 is the negative decimal logarithm of a concentration given in moles per litre.

smiles entry: CCCNc1cnn(C2CC(C)(C)CC(C)(C)C2)c(=O)c1Br
result number: 7.68

smiles entry: CN(C)c1cnn(C2CC(C)(C)CC(C)(C)C2)c(=O)c1Cl
result number: 7.09

From here, focus on the item given below.
Ask: Note pEC50 for the compound shown: CN(C)CCn1cc2c(=O)n(C3CC(C)(C)CC(C)(C)C3)ncc2n1
Reply: 5.54

====

- System: mouse isolated vas deferens
- experiment notes: Mouse isolated vas deferens (MVD) bioassay, electrically stimulated contractions
- Assay type: cell-based
- run parameters: Mus musculus; vas deferens of male Swiss Webster mice, electrically evoked contractions; NA = not active; read-out: MVD Assay EC50
We label by threshold. Values of EC50 strictly beneath 3 µM are class 1. Values of 3 µM and up are class 0.

Here's what some known entries look like.
compound: CCCNc1cnn(C2CCCCC2)c(=O)c1Cl [Compound 10]
assigned label: class 0
//
compound: CCCNc1cnn(C2CC(C)(C)CC(C)(C)C2)c(=O)c1 [Compound 8]
assigned label: class 1
//
compound: CNc1cnn(C2CC(C)(C)CC(C)(C)C2)c(=O)c1Cl [Compound 3]
assigned label: class 1
//
compound: O=c1c(Cl)c(NCCN2CCOCC2)cnn1-c1cc(C(F)(F)F)cc(C(F)(F)F)c1 [Compound 22]
assigned label: class 0
//
compound: CCCNc1cnn(C(C)(C)C)c(=O)c1Cl [Compound 24]
assigned label: class 0

Ask: Does CCCNc1cnn(CC(C)(C)C)c(=O)c1Cl [Compound 33] have EC50 strictly under 3 µM?
Reply: class 0

Ask: Does CN(C)c1cnn(C2CC(C)(C)CC(C)(C)C2)c(=O)c1 [Compound 7] have EC50 strictly under 3 µM?
Reply: class 1

Ask: Does CC(C)(C)n1ncc(NCCN2CCOCC2)c(Cl)c1=O [Compound 27] have EC50 strictly under 3 µM?
Reply: class 0

====

- target or system: human CB1 cannabinoid receptor (Homo sapiens (Human), UniProt P21554)
- Sequence (P21554 whole entry): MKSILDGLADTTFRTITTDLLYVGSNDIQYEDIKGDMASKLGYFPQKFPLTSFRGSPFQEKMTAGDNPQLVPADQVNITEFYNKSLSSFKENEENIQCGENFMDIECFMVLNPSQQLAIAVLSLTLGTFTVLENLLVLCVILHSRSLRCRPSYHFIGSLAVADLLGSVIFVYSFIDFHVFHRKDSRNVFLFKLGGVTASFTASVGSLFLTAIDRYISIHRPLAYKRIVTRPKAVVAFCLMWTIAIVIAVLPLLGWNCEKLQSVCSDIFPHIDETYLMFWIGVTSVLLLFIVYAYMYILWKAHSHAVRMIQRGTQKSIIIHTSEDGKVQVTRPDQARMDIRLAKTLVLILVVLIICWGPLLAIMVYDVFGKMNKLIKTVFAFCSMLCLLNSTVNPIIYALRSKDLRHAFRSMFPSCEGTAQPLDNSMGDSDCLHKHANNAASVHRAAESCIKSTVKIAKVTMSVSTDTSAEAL
- experiment notes: Radioligand binding assay, CB1 ([3H]-CP 55,940 competition)
- run parameters: plasma membranes of HEK 293 EBNA cells transfected with human CB1; 0.72 nM [3H]-CP 55,940; NA = not active
readout kind: pIC50
A value of pIC50 is the negative decimal logarithm of a concentration given in moles per litre.

smiles entry: CC1(C)CC(n2ncc3c(cnn3CCN3CCOCC3)c2=O)CC(C)(C)C1
result number: 6.66

From here, focus on the item given below.
Ask: Note pIC50 for the molecule shown: CC1(C)CC(n2ncc(NCCN3CCOCC3)c(Br)c2=O)CC(C)(C)C1
Reply: 5.73

====

Listing of recorded EC50 by entry.
- Tested on: mouse isolated vas deferens
- experiment notes: Mouse isolated vas deferens (MVD) bioassay, electrically stimulated contractions
- Type: cell-based
- run parameters: Mus musculus, read-out: MVD Assay EC50 (nM)
Your answer should be a plain number; it is taken to be in nM.

Consider the worked cases shown below.
smiles entry: CCCn1cc2c(=O)n(C3CC(C)(C)CC(C)(C)C3)ncc2n1
EC50, nM: 1200
//
smiles entry: CCCn1ncc2c(=O)n(C3CC(C)(C)CC(C)(C)C3)ncc21
EC50, nM: 21

Ask: Note EC50 for the molecule shown: CC1(C)CC(n2ncc3nn(CCN4CCOCC4)cc3c2=O)CC(C)(C)C1
Reply: 1400
